Please go through the items and note down their Ki.
- Measurement Target: C5a Receptor (Homo sapiens)
- Construct: 2.5-25 μg/mL of purified PMNL membrane fragments; from tissue; host or cells: polymorphonuclear leukocyte (PMNL) membrane fragments
- Sequence (P21730 1-350): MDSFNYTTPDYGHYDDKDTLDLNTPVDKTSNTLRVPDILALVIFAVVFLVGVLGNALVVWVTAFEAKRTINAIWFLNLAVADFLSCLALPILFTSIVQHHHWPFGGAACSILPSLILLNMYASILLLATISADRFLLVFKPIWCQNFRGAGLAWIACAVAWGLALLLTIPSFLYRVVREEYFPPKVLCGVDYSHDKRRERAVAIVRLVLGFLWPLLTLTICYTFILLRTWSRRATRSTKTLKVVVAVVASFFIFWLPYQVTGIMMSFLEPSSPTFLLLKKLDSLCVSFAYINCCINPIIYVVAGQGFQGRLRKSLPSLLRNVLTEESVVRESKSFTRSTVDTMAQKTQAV
- Experimental Details: Anaphylatoxin receptor binding Ki determination (inhibition of 125I-C5a binding to PMNL membrane fragments)
- Assay Context: 0.03-1 nM 125I-C5a, 2.5-25 μg/mL purified PMNL membrane fragments, filtration; read-out: Ki (In vitro C5a Receptor Binding Potency)
Non-standard residues stand in square brackets, D forms with d. Residues, ends and D or L forms follow the SMILES beside them. ξ: configuration not given here. *: point of attachment. X6 = N#CC(Cc1ccccc1)(Cc1ccccc1)C(=O)*; NMeF = CN[C@@H](Cc1ccccc1)C(=O)O; PhLac = O=C(O)[C@@H](O)Cc1ccccc1; Cha = N[C@@H](CC1CCCCC1)C(=O)O; dCha = N[C@H](CC1CCCCC1)C(=O)O; Phe(ol) = N[C@H](CO)Cc1ccccc1; X9 = CC[C@H](C(=O)*)c1ccccc1; ξCha = NC(CC1CCCCC1)C(=O)O; NHBn = c1ccc(CN*)cc1; OBn = c1ccc(CO*)cc1; X1 = N#CCCN*
One number for each entry, in nM.

Solved cases (5 shown):
{"Molecule": "CN[C@@H](Cc1ccccc1)C(=O)N[C@@H](CCCCN)C(=O)N1CCC[C@H]1C(=O)N[C@H](CC1CCCCC1)C(=O)N[C@H](CO)Cc1ccccc1 [Example 119] (H-[NMeF]KP[dCha][Phe(ol)])", "Ki [nM]": 780}
{"Molecule": "N=C(N)NCCC[C@@H](NC[C@H](Cc1ccccc1)NC(=O)[C@@H](CC1CCCCC1)NC(=O)[C@@H]1CCCN1C(=O)[C@H](CCCCN)NC(=O)CCCCc1ccccc1)C(=O)O", "Ki [nM]": 52000}
{"Molecule": "N=C(N)NCCC[C@@H](NC(=O)[C@H](Cc1ccccc1)NC(=O)[C@@H](CC1CCCCC1)NC(=O)[C@@H]1CCCN1C(=O)[C@H](CCCCN)NC(=O)[C@@H](O)Cc1ccccc1)C(=O)O [Example 84] (H-[PhLac]KP[dCha]F[dR]-OH)", "Ki [nM]": 62}
{"Molecule": "N#CC(Cc1ccccc1)(Cc1ccccc1)C(=O)N[C@@H](CCCCN)C(=O)N1CCC[C@H]1C(=O)N[C@H](CC1CCCCC1)C(=O)N[C@@H](Cc1ccccc1)C(=O)N[C@H](CCCNC(=N)N)C(=O)O [Example 88] (X6-KP[dCha]F[dR]-OH)", "Ki [nM]": 670}
{"Molecule": "CN[C@@H](Cc1ccccc1)C(=O)N[C@@H](CCCCN)C(=O)N1CCC[C@H]1C(=O)N[C@H](CC1CCCCC1)C(=O)N[C@@H](CC1CCCCC1)C(=O)NCCC#N [Example 223] (H-[NMeF]KP[dCha][Cha]-X1)", "Ki [nM]": 1200}

Go through the list and state Ki for each entry.
1. CN[C@@H](Cc1ccccc1)C(=O)N[C@@H](CCCCN)C(=O)N1CCC[C@H]1C(=O)N[C@H](CC1CCCCC1)C(=O)N[C@@H](CC1CCCCC1)C(=O)NCc1ccccc1 [Example 96] (H-[NMeF]KP[dCha][Cha]-NHBn)
2. CC[C@H](C(=O)N[C@@H](CCCCN)C(=O)N1CCC[C@H]1C(=O)N[C@H](CC1CCCCC1)C(=O)N[C@@H](CC1CCCCC1)C(=O)N[C@H](CCCNC(=N)N)C(=O)O)c1ccccc1 [Example 2] (X9-KP[dCha][Cha][dR]-OH)
3. N=C(N)NCCC[C@@H](NC(=O)[C@H](CC1CCCCC1)NC(=O)[C@@H](CC1CCCCC1)NC(=O)[C@@H]1CCCN1C(=O)[C@H](CCCCN)NC(=O)C(Cc1ccccc1)C(=O)O)C(=O)O (mixture of isomers)

Result:
1: 90; 2: 14; 3: 22

Request: Param item = CN[C@@H](Cc1ccccc1)C(=O)N[C@@H](CCCCN)C(=O)N1CCC[C@H]1C(=O)N[C@H](CC1CCCCC1)C(=O)NC(CC1CCCCC1)C(=O)OCc1ccccc1 (stereo partly drawn) [Example 159] (H-[NMeF]KP[dCha][ξCha]-OBn) ; retrieve measured Ki.
Result: 980

The values you see were collected from patent US5190922A.
